Test system: LATS1
Details: concentration: 1 μM, replicates: in singlicate; n = 1;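 also: KINOMEscan kinase panel screen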
Catalogue of compounds with associated %Inh
The answer is to be given in %; state only the numeric part.

Problem: Could you share which %Inh value was measured for `O=C(Nc1n[nH]c2nc(-c3ccc(O)cc3)ccc12)C1CC1` ?
Result: 17

Problem: What do you get for `Clc1ccc(-c2nn3ncccc3c2-c2ccnc(Nc3ccc4c(c3)OCCO4)n2)cc1` ?
Result: 0

Problem: `CN1CCN(CCCNc2nccc(-c3c(-c4ccc(F)cc4)nn4cc(C(F)(F)F)ccc34)n2)CC1` ?
Result: 0

Problem: Now consider `CN(c1ccc(NC(=O)Nc2cc(C(F)(F)F)ccc2F)cc1)c1ccnc(Nc2ccc(S(N)(=O)=O)cc2)n1` .
Result: 0

* * *

Tested on: PCTK2
Construct: gene CDK17
Settings: concentration: 1 μM, replicates: in singlicate; n = 1
Please use label 1 whenever %Inh is not below 6%, and label 0 whenever it is.

Mol smiles: Cn1cc(-c2ccc3c(c2)CCN3C(=O)Cc2cccc(Cl)c2)c2c(N)ncnc21
Assigned class: label 0

Mol smiles: CC(=O)Nc1nc2cnc(Nc3cc(NC(=O)c4cccc(C5(C#N)CC5)c4Cl)ccc3C)nc2s1
Assigned class: label 1

Mol smiles: FC(F)(F)c1ccc(/C=C/c2cncnc2Nc2ccc3[nH]c(Cc4ccccc4)nc3c2)cc1
Assigned class: label 0

Mol smiles: Cn1cc(-c2[nH]c3cc(NC(=O)[C@H](N)C4CCCCC4)cc4c3c2C=NNC4=O)cn1
Assigned class: label 0

Mol smiles: CC(C)(C)c1ccc2nccc(Nc3cccc(O)c3)c2c1
Assigned class: label 0

Problem: Is %Inh at least 6%? Consider `Fc1ccc(-c2ncn(C3CCNCC3)c2-c2ccnc(Oc3ccc(-c4ccccc4)cc3)n2)cc1`
Result: label 0

Problem: Now try `Cn1cc(-c2ccc3c(c2)CCN3C(=O)Cc2cccc(F)c2)c2c(N)ncnc21` .
Result: label 0

Problem: Now the compound `c1ccc(-c2n[nH]cc2Nc2ccnc3ccccc23)nc1`
Result: label 0

Problem: Let us now turn to `COc1cc2c(cc1OCCN1CCNCC1)ncc1c3ccc(C#N)cc3[nH]c21`
Result: label 1

Problem: Next record, please: `COc1cccc(C2=C(Nc3ccc(Cl)c(C(=O)O)c3)C(=O)NC2=O)c1`
Result: label 0

Problem: Next record, please: `CCCCc1nn2ncccc2c1-c1ccnc(Nc2ccc(N3CCN(C)CC3)cc2)n1`
Result: label 1

Problem: Another compound: `Cc1ccc(S(=O)(=O)Nc2ccc(Nc3nccc(Nc4cccc5[nH]ncc45)n3)cc2)cc1`
Result: label 0

* * *

Tested on: TRKA
Construct: gene NTRK1
Conditions: concentration: 1 μM, replicates: in singlicate; n = 1
Endpoint: %Inh (%)
# output: bare number, implied unit %

The following compounds have reported results that may help.
Compound: COc1ccc(CNC(=O)NC2CCN(c3ccnc(Nc4ccc(F)cc4)n3)CC2)cc1
%Inh (%): 0
//
Compound: COc1ccc(Nc2nccc(NCCNC(=O)c3cc4ccccc4s3)n2)cc1
%Inh (%): 18
//
Compound: CC(=O)N1CCN(c2ccc(Nc3nccc(-c4sc(C(C)C)nc4-c4cccc(NS(=O)(=O)c5cccc(Cl)c5)c4)n3)cn2)CC1
%Inh (%): 45

As a next step, examine the compound that follows.
Problem: Hi! What's the reported %Inh for NCCCC(NC(=O)c1cc(Br)c(-c2ccnc3[nH]ccc23)s1)c1ccccc1.O=C(O)C(F)(F)F.O=C(O)C(F)(F)F (stereo not shown) on TRKA?
Result: 53
